These entries and their values trace back to patent US20220002314A1.

# experimental.target: Human μ-opioid receptor (Homo sapiens, UniProt P35372)
# Sequence (P35372 whole entry): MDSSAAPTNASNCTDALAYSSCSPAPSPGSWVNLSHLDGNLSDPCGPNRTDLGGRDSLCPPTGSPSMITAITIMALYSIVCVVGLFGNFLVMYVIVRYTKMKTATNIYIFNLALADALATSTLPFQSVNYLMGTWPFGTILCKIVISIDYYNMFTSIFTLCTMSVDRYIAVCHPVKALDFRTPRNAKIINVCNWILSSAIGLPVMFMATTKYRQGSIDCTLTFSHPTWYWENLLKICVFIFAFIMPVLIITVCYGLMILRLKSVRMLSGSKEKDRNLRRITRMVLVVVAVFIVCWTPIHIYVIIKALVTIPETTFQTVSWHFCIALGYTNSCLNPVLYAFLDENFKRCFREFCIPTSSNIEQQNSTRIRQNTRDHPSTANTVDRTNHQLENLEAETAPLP
# measurement.protocol: biochemical
# Type: binding
pKi: −log10 of the molar value.
Catalogue of molecules with associated pKi
property: pKi

molecule | value
CCCC(c1nc2ccc(Br)c(C)c2c(=O)n1CC)N1C[C@@H](C)N[C@@H](C)C1 (stereo partly shown) [Example 21] | < 6.30
CCC[C@@H](c1nc2ccc(NCC[C@@]3(c4ccccn4)CCOC4(CCCC4)C3)cc2c(=O)n1CC)N1C[C@@H](C)N[C@@H](C)C1 [Example 158] | < 6.30
CCC[C@@H](c1nc2ccc(Br)cc2c(=O)n1CC)N1CCN(C)[C@H](C)C1 [Example 110] | < 6.30
CCC[C@@H](c1nc2ccc(O)cc2c(=O)n1CC)N1C[C@@H](C)N[C@@H](C)C1 [Example 36] | < 6.30
CCC[C@H](c1nc2ccc(F)c(F)c2c(=O)n1CC)N1CCN[C@@H](C)C1 [Example 218] | 6.30 to 7.00
CCCC(c1nc2c(F)cc(Br)cc2c(=O)n1CC)N1CCNCC1 (stereo not shown) [Example 87] | 6.30 to 7.00
CCC[C@H](c1nc2ccc(NCC[C@@]3(c4ccccn4)CCOC4(CCCC4)C3)cc2c(=O)n1CC)N1C[C@@H](C)N[C@@H](C)C1 [Example 160] | < 6.30

====

# experimental.target: Human α2δ-1 subunit of Cav2.2 calcium channel (Homo sapiens, UniProt P54289)
# Sequence (P54289 25-1103): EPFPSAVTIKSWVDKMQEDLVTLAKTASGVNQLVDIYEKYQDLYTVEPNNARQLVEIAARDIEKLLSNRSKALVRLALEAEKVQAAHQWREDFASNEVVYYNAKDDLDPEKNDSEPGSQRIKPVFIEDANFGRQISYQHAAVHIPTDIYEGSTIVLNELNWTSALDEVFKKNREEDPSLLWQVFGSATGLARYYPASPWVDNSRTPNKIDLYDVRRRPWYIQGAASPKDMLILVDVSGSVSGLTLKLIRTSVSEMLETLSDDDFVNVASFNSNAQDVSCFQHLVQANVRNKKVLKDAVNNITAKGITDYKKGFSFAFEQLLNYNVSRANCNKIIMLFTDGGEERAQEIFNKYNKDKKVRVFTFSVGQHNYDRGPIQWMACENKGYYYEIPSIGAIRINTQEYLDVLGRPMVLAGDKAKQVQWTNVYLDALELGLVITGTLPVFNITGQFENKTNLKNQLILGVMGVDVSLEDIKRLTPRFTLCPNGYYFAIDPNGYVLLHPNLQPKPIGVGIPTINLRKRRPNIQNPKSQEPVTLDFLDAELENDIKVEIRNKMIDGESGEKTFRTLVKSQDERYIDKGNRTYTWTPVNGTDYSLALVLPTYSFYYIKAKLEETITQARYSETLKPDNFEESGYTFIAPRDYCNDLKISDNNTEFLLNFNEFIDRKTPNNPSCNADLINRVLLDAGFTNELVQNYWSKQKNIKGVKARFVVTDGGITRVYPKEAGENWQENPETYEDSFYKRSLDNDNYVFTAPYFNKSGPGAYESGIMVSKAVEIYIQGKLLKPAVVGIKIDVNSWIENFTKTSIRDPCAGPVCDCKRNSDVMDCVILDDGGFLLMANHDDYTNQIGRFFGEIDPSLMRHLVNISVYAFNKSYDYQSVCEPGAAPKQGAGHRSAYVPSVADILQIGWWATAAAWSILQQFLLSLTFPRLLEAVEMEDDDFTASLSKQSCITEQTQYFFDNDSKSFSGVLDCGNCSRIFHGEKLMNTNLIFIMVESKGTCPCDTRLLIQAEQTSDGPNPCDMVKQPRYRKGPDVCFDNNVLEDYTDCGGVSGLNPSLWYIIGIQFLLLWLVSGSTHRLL
# measurement.protocol: biochemical
# Format: binding
pKi: −log10 of the molar value.

compound | pKi
CCC[C@@H](c1nc2ccc(Br)cc2c(=O)n1CC)N1CCN[C@H](C)C1 [Example 100] | < 5.30
CCC[C@H](c1nc2ccncc2c(=O)n1CC)N1CCN[C@@H](C)C1 [Example 66] | > 6.30
CCC[C@H](c1nc2ccc(C(F)(F)F)cc2c(=O)n1CC)N1CCN[C@@H](C)C1 [Example 207] | > 6.30
CCCC(c1nc2cc(C)c(Br)cc2c(=O)n1CC)N1C[C@@H](C)N[C@@H](C)C1 (some centres unmarked) [Example 19] | > 6.30
CCCC(c1nc2ccc(CCN(C)CCC(C)C)cc2c(=O)n1CC)N1C[C@@H](C)N[C@@H](C)C1 (some centres unmarked) [Example 175] | > 6.30
CCCC(c1nc2ccc(CN(C)CC(C)C)cc2c(=O)n1CC)N1C[C@@H](C)N[C@@H](C)C1 (some centres unmarked) [Example 184] | > 6.30
CCC[C@H](c1nc2ccccc2c(=O)n1CCOC)N1C[C@@H](C)N[C@@H](C)C1 [Example 123] | > 6.30
CCCC(c1nc2ccccc2c(=O)n1C)N1C[C@@H](C)N[C@@H](C)C1 (some centres unmarked) [Example 2] | > 6.30
CCC[C@@H](c1nc2ncc(Br)cc2c(=O)n1CC1CC1)N1CCN[C@@H](C)C1 [Example 74] | < 5.30
CCC[C@H](c1nc2cc(Cl)c(Cl)cc2c(=O)n1C)N1CCN[C@@H](C)C1 [Example 206] | > 6.30
CCC[C@H](c1nc2c(F)cc(OC)cc2c(=O)n1CC)N1CCNCC1 [Example 38] | > 6.30
CCC[C@@H](c1nc2cc(O[C@H](CNC)c3ccccc3)ccc2c(=O)n1C)N1C[C@@H](C)N[C@@H](C)C1 [Example 168] | 5.30 to 6.30
CCC[C@H](c1nc2ccc(OC)cc2c(=O)n1CC)N1CCN[C@H](C)C1 [Example 211] | > 6.30
CCC[C@H](c1nc2ccc(Br)cc2c(=O)n1CC)N1C[C@@H](C)N[C@@H](C)C1 [Example 29] | > 6.30
CCC[C@H](c1nc2c(F)cc(F)cc2c(=O)n1CC)N1CCN[C@@H](C)C1 [Example 201] | > 6.30
CCCC(c1nc2ccc(Br)cc2c(=O)n1C)N1C[C@@H](C)N[C@@H](C)C1 (some centres unmarked) [Example 16] | > 6.30
CCC[C@@H](c1nc2c(F)cc(Br)cc2c(=O)n1CC)N1CCN[C@@H](C)C1 [Example 52] | < 5.30

====

# experimental.target: Human μ-opioid receptor (Homo sapiens)
# measurement.protocol: biochemical
# Type: binding
property: Ki

compound | property | value
CCCC(c1nc2ccc(Br)c(Cl)c2c(=O)n1CC)N1CCNCC1 (centres unmarked) | Ki | 100 to 500 nM
CCC[C@H](c1nc2ccc(Cl)cc2c(=O)n1CC)N1CCN[C@H](CF)C1 | Ki | > 500 nM
CCC[C@H](c1nc2ccc(Br)cc2c(=O)n1CC)N1CCN(C)[C@@H](C)C1 | Ki | < 100 nM
CCC[C@H](c1nc2ccc(O)cc2c(=O)n1CC)N1C[C@@H](C)N[C@@H](C)C1 | Ki | > 500 nM
CCC[C@H](c1nc2cccnc2c(=O)n1CC)N1CCN[C@@H](C)C1 | Ki | > 500 nM
CCCC(c1nc2ccc(Br)cc2c(=O)n1CC)N1C[C@@H](C)N[C@@H](C)C1 (some centres unmarked) | Ki | > 500 nM
CCC[C@H](c1nc2ccc(Br)cc2c(=O)n1CC)N1CCN[C@@H](CC)C1 | Ki | > 500 nM
CCC[C@H](c1nc2ccc(N3C[C@@H](C)OC4(CCN(CCc5ccccc5)CC4)C3)cc2c(=O)n1CC)N1C[C@@H](C)N[C@@H](C)C1 | Ki | > 500 nM

====

# experimental.target: Human μ-opioid receptor (Homo sapiens)
# measurement.protocol: biochemical
# Type: binding
pKi: −log10 of the molar value.

compound | pKi
CCC[C@H](c1nc2ccncc2c(=O)n1CC)N1CCN[C@@H](C)C1 [Example 66] | < 6.30
CCCC(c1nc2cc(F)c(F)cc2c(=O)n1CC)N1CCNCC1 (centres unmarked) [Example 86] | < 6.30
CCCC(c1nc2ccc(Br)c(F)c2c(=O)n1CC)N1CCNCC1 (centres unmarked) [Example 88] | < 6.30
CCC[C@H](c1nc2ccc(Br)cc2c(=O)n1CC)[C@H]1CCNCC1(F)F (single isomer, unassigned) [Example 189] | < 6.30
CCC[C@H](c1nc2ccc(Br)cc2c(=O)n1CC)N1C[C@H](C)N[C@@H](C)C1 [Example 228] | > 7.00
CCC[C@H](c1nc2c(F)cc(Cl)cc2c(=O)n1CC)N1CCN[C@@H](C)C1 [Example 217] | > 7.00
CCCC(c1nc2cccnc2c(=O)n1CC)N1C[C@@H](C)N[C@@H](C)C1 (some centres unmarked) [Example 27] | < 6.30
CCC[C@H](c1nc2ccc(Br)cc2c(=O)n1CC)N1CCN[C@@H](COC)C1 [Example 219] | < 6.30

====

Catalogue of molecules with associated Ki
# experimental.target: Human α2δ-1 subunit of Cav2.2 calcium channel (Homo sapiens)
# measurement.protocol: biochemical
# Type: binding

molecule | Ki
CCCC(c1nc2ccc(NCC)cc2c(=O)n1CC)N1C[C@@H](C)N[C@@H](C)C1 (stereo partly shown) | < 500 nM
CCCC(c1nc2ccc(CCN(C)Cc3ccccc3)cc2c(=O)n1CC)N1C[C@@H](C)N[C@@H](C)C1 (stereo partly shown) | < 500 nM
CCC[C@@H](c1nc2cccnc2c(=O)n1CC)N1CCN[C@@H](C)C1 | > 5000 nM
CCCC(c1nc2cc(F)c(Br)cc2c(=O)n1CC)N1C[C@@H](C)N[C@@H](C)C1 (stereo partly shown) | < 500 nM

====

Catalogue of compounds with associated Ki
# experimental.target: Human α2δ-1 subunit of Cav2.2 calcium channel (Homo sapiens, UniProt P54289)
# measurement.protocol: biochemical
# Format: binding
property: Ki

compound | experimental.target | property | value
CCC[C@H](c1nc2ccc(F)cc2c(=O)n1C)N1CCN[C@@H](C)C1 | Human α2δ-1 subunit of Cav2.2 calcium channel (Homo sapiens, UniProt P54289) | Ki | < 500 nM
CCC[C@H](c1nc2ccc(Br)cc2c(=O)n1CC)N1CCNC(C)(C)C1 | Human α2δ-1 subunit of Cav2.2 calcium channel (Homo sapiens, UniProt P54289) | Ki | > 5000 nM
CCCC(c1nc2ccc(CN(C)CCC(C)C)cc2c(=O)n1CC)N1C[C@@H](C)N[C@@H](C)C1 (some centres unmarked) | Human α2δ-1 subunit of Cav2.2 calcium channel (Homo sapiens, UniProt P54289) | Ki | < 500 nM
CCCC(c1nc2cc(N3CCCC3)ccc2c(=O)n1CC)N1C[C@@H](C)N[C@@H](C)C1 (some centres unmarked) | Human α2δ-1 subunit of Cav2.2 calcium channel (Homo sapiens, UniProt P54289) | Ki | < 500 nM
CCC[C@@H](c1nc2ccc(Br)cc2c(=O)n1CC)[C@@H]1CCN[C@@H](C)C1 | Human α2δ-1 subunit of Cav2.2 calcium channel (Homo sapiens, UniProt P54289) | Ki | > 5000 nM
CCCC(c1nc2cnccc2c(=O)n1CCOC)N1C[C@@H](C)N[C@@H](C)C1 (some centres unmarked) | Human α2δ-1 subunit of Cav2.2 calcium channel (Homo sapiens, UniProt P54289) | Ki | < 500 nM
CCCC(c1nc2cc(C#N)ccc2c(=O)n1C)N1C[C@@H](C)N[C@@H](C)C1 (some centres unmarked) | Human α2δ-1 subunit of Cav2.2 calcium channel (Homo sapiens, UniProt P54289) | Ki | < 500 nM
CCCC(c1nc2cc(-c3cccc(O)c3)ccc2c(=O)n1CC)N1C[C@@H](C)N[C@@H](C)C1 (some centres unmarked) | Human α2δ-1 subunit of Cav2.2 calcium channel (Homo sapiens, UniProt P54289) | Ki | < 500 nM
CCCC(c1nc2ccc(Br)c(C)c2c(=O)n1CC)N1CCNCC1 (centres unmarked) | Human α2δ-1 subunit of Cav2.2 calcium channel (Homo sapiens, UniProt P54289) | Ki | 500 to 5000 nM
CCC[C@H](c1nc2ccc(F)c(F)c2c(=O)n1CC)N1CCN[C@@H](C)C1 | Human α2δ-1 subunit of Cav2.2 calcium channel (Homo sapiens, UniProt P54289) | Ki | < 500 nM
CCC[C@H](c1nc2cccnc2c(=O)n1CC)N1CCN[C@@H](C)C1 | Human α2δ-1 subunit of Cav2.2 calcium channel (Homo sapiens, UniProt P54289) | Ki | < 500 nM
CCC[C@H](c1nc2cc(O[C@@H](CCNC)c3ccccc3)ccc2c(=O)n1C)N1C[C@@H](C)N[C@@H](C)C1 | Human α2δ-1 subunit of Cav2.2 calcium channel (Homo sapiens, UniProt P54289) | Ki | < 500 nM
CCC[C@H](c1nc2ccc(Br)cc2c(=O)n1CC)[C@H]1CCN[C@@H](C)C1 | Human α2δ-1 subunit of Cav2.2 calcium channel (Homo sapiens, UniProt P54289) | Ki | < 500 nM
CCCC(c1nc2cc(C)c(Br)cc2c(=O)n1CC)N1CCNCC1 (centres unmarked) | Human α2δ-1 subunit of Cav2.2 calcium channel (Homo sapiens, UniProt P54289) | Ki | < 500 nM
CCCC(c1nc2ccc(CCO)cc2c(=O)n1CC)N1C[C@@H](C)N[C@@H](C)C1 (some centres unmarked) | Human α2δ-1 subunit of Cav2.2 calcium channel (Homo sapiens, UniProt P54289) | Ki | < 500 nM
CCCC(c1nc2ccc(Br)c(Cl)c2c(=O)n1CC)N1C[C@@H](C)N[C@@H](C)C1 (some centres unmarked) | Human α2δ-1 subunit of Cav2.2 calcium channel (Homo sapiens, UniProt P54289) | Ki | < 500 nM
CCCC(c1nc2c(Cl)cc(F)cc2c(=O)n1CC)N1CCNCC1 (centres unmarked) | Human α2δ-1 subunit of Cav2.2 calcium channel (Homo sapiens, UniProt P54289) | Ki | > 5000 nM
